Reference source: ChEMBL document CHEMBL1921746

The molecules listed here are annotated with their IC50.
# protocol: Antiinflammatory activity in C57BL/6 mouse BMDC assessed as inhibition of LPS-stimulated IL-6 production preincubated for 1 hr before LPS-stimulation measured after 16 hrs by ELISA
# Format: functional

Provide measured IC50 value, entry: C=C1CC[C@H]2C(C)(C)CCC[C@]2(C)[C@H]1CCC1=CC(OC)OC1=O (some centres undefined)
7.57 µM

Provide measured IC50 value, entry: CC1(C)CCC[C@]2(C)[C@H]3C/C=C(/C=O)CC(O)CC3=CC(=O)[C@@H]12 (some centres undefined)
8.93 µM

Provide measured IC50 value, entry: C=C1[C@@H](O)C[C@H]2C(C)(C)CCC[C@]2(C)[C@H]1/C=C/C1=CC(=O)OC1O (some centres undefined)
3.38 µM

Provide measured IC50 value, entry: C[S+]([O-])c1ccc(-c2nc(-c3ccc(F)cc3)c(-c3ccncc3)[nH]2)cc1 (centres undefined)
3.53 µM
